# subjectOfTest: MyD88^TIR (Homo sapiens)
# Construct: MyD88 (residues 148–296); 6xHis; made in house; host or cells: E. coli BL21 (DE3)
# Sequence (Q99836 148-296): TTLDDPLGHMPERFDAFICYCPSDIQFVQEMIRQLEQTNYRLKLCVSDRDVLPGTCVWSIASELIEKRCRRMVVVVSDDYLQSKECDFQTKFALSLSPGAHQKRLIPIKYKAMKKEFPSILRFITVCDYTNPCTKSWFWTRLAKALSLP
# assayProcedure: T‐Surf phage library (P8 and P3) selection against MyD88^TIR, four rounds, NGS read counts
# Format: binding
# conditionNotes: P3_MyD88: rank by count before grouping
measureName: Rank (before)
A bare number is all that is needed in reply.

YTALTNSGCPTFCVIA
1694
LVAHQISKTIKIFATI
2314
KEVEGWRDALTKVACR
1305
YTALTNRGFLTFRDNA
1650
LKGGDPYFWSKLRYTM
2531

Next, consider the following sequence.
QUERY: Quick one: Rank (before) of YTALTNICFHTFRDND ?
RESULT: 1654
